This collection of values is drawn from patent US10800772B2.

Collected log10 of EC50 values appear next to each entry.
# System: HIV-IIIb (wildtype)
# measurement_description: Antiviral assay in MT4 cells, HIV-IIIb wildtype
# Format: cell-based, HIV-1
# measurement_parameters: Human immunodeficiency virus 1, IIIB, MT4, 120 h, read-out: WT EC50
# Experimental: Antiviral Assay in MT4 Cells […] Assay plates were then maintained in a humidified, 5% CO2 incubator at 37° C. […] Cell lysis was carried out by incubating at room temperature for 10 minutes and then chemiluminescence was read using an Envision plate reader (PerkinElmer). […]
In plain terms, each number is the log10 of measured EC50 in nM.

Solved cases below.
>  <structure>
CCOCCN1CCN(c2nn(C)c3ccc(-c4nc5cc(C)c([C@H](OC(C)(C)C)C(=O)O)c(-c6ccc(Cl)cc6)c5s4)cc23)CC1

>  <measurement>
0.78

$$$$
>  <structure>
CCn1nc(C2CCN(C3CN(C(C)=O)C3)CC2)c2nc(-c3nc4cc(C)c([C@H](OC(C)(C)C)C(=O)O)c(-c5ccc(Cl)cc5)c4s3)ccc21

>  <measurement>
0.00

$$$$
>  <structure>
Cc1cc2nc(-c3ccc4c(c3)c(N3CCN([C@H]5C[C@@H](O)C5)CC3)nn4C)sc2c(-c2ccc(Cl)cc2)c1[C@H](OC(C)(C)C)C(=O)O

>  <measurement>
1.32

$$$$
>  <structure>
Cc1cc2nc(-c3cnc4c(c3)c(C3CCN(C5CN(C(=O)OC(C)(C)C)C5)CC3)nn4C)sc2c(-c2ccc(Cl)cc2)c1[C@H](OC(C)(C)C)C(=O)O

>  <measurement>
1.60

$$$$
>  <structure>
Cc1cc2nc(-c3ccc4c(c3)c(N3CCN5C(=O)COC[C@H]5C3)nn4C)sc2c(-c2ccc(Cl)cc2)c1[C@H](OC(C)(C)C)C(=O)O

>  <measurement>
0.85

$$$$

Could you now consider this next molecule?
# log10 of EC50 of Cc1cc2nc(-c3ccc4c(c3)c(N3CCN(C)CC3)nn4C)sc2c(-c2ccc(Cl)cc2)c1[C@H](OC1CC1)C(=O)O = 1.51

----------
# Tested on: HIV-IIIb IN T174I BT
# measurement_description: Antiviral assay in MT4 cells, HIV-IIIb IN T174I BT virus (from viral breakthrough)
# Assay type: cell-based, HIV-1
# measurement_parameters: Human immunodeficiency virus 1, IIIB, MT4, 120 h, read-out: T174I BT EC50, MT4 cells, HIV-IIIb IN T174I BT (viral breakthrough), 5 days, CellTiter-Glo
quantity_kind: pEC50
// pEC50 is dimensionless: -log10 of concentration (M)

>  <structure>
COCCN1CCN(c2nn(C)c3ccc(-c4nc5cc(C)c([C@H](OC(C)(C)C)C(=O)O)c(-c6ccc(Cl)cc6)c5s4)cc23)C1=O

>  <measurement>
5.63

$$$$
>  <structure>
Cc1cc2nc(-c3ccc4c(c3)c(N3CC5(COC5)C3)nn4C)sc2c(-c2ccc(Cl)cc2)c1[C@H](OC(C)(C)C)C(=O)O

>  <measurement>
5.76

$$$$
>  <structure>
CO[C@H]1CCN(c2nn(C)c3ccc(-c4nc5cc(C)c([C@H](OC(C)(C)C)C(=O)O)c(-c6ccc(Cl)cc6)c5s4)cc23)C1

>  <measurement>
5.11

$$$$
>  <structure>
CCOCCN1CCN(c2nn(C)c3ccc(-c4nc5cc(C)c([C@H](OC(C)(C)C)C(=O)O)c(-c6ccc(Cl)cc6)c5s4)cc23)CC1

>  <measurement>
6.31

$$$$
>  <structure>
COC(=O)N1CC[C@H]1CN1CCC(c2nn(C)c3ccc(-c4nc5cc(C)c([C@H](OC(C)(C)C)C(=O)O)c(-c6ccc(Cl)cc6)c5s4)cc23)CC1

>  <measurement>
6.67

$$$$

Here is the next item to consider.
Notebook: CC(=O)N1CC[C@H](N2CCC(c3nn(C)c4ccc(-c5nc6cc(C)c([C@H](OC(C)(C)C)C(=O)O)c(-c7ccc(Cl)cc7)c6s5)cc34)CC2)C1 , pEC50 read as 7.07
